The measurements presented in this section are drawn from the supplement of paper PMC8671470.

- System: ML-2
- test.description: cell viability (% survival relative to DMSO control, bortezomib = 0%); higher = less cytotoxic
- run.parameters: 10 nM; 72 h
reported.property: cell viability (%)
Enter your answer as a number in %; do not include the unit.

Known cell viability results, listed for orientation:
• CNC(=C[N+](=O)[O-])NCCSCc1ccc(CN(C)C)o1 = 113
• OCCN1C[C@H](O)[C@@H](O)[C@H](O)[C@H]1CO = 104
• CN1CC(=O)N2[C@H](c3ccc4c(c3)OCO4)c3[nH]c4ccccc4c3C[C@@H]2C1=O = 94.1

Attention now turns to another entry.
Query :: Field request: cell viability | item: O=C(Oc1ccc([N+](=O)[O-])cc1)N1CCC(C(O)(c2ccc3c(c2)OCO3)c2ccc3c(c2)OCO3)CC1
Result :: 112

###

- Tested on: HL-60
- test.description: cell viability (% survival relative to DMSO control); higher = less cytotoxic
- run.parameters: 1 µM; 72 h; co-treatment: GSK2194069 100 nM
Readings of cell viability for the listed molecules
Enter your answer as a number in %; do not include the unit.

Known cell viability results, listed for orientation:
- CCCCC/C=C\C/C=C\C/C=C\C/C=C\CCCC(=O)C(F)(F)F: 89.7
- O=NN(CCCl)C(=O)NCCCl: 97.5
- CC(C)(CS(=O)(=O)[O-])NC(=O)CC[N+](C)(C)CCO: 111

Query :: Field request: cell viability | item: CCC(CC#N)OC(=O)N[C@@H](C)c1cccc(NC(=O)Nc2ccc(-c3cnco3)c(OC)c2)c1 (stereo in doubt)
Result :: 53

Query :: Field request: cell viability | item: O=C(C(=O)c1ccc(Br)cc1)c1ccc(Br)cc1
Result :: 98.1

###

Readings of cell viability for the listed compounds
- System: myeloid leukemia patient primary cells Pat.4
- test.description: cell viability (% survival relative to DMSO control); higher = less cytotoxic
- run.parameters: 1 nM; 72 h
Where a name gives a salt, the structure may show the parent alone.
Include the unit after the number when you answer.

- CN(C)CCNC(=O)c1cccn2c(=O)c3cc4ccccc4cc3nc12: 81.3%
- NS(=O)(=O)c1ccc(S(=O)(=O)Nc2cccc3c(Cl)c[nH]c23)cc1: 91.4%
- Fc1ccc(CNc2ncnc3ccc(F)cc23)cc1: 77.2%
- CC(C)(Cc1ccccc1)NCC(O)c1ccc(O)c(NS(C)(=O)=O)c1 (stereo unspecified) [Zinterol hydrochloride]: 87.7%
- CCC(CC#N)OC(=O)N[C@@H](C)c1cccc(NC(=O)Nc2ccc(-c3cnco3)c(OC)c2)c1 (stereo in doubt): 86%

Query :: Field request: cell viability | item: c1ccc2c(c1)SCc1c-2[nH]c2ccccc12
Result :: 95.6%

###

- Tested on: HL-60
- test.description: cell viability (% survival relative to DMSO control, bortezomib = 0%); higher = less cytotoxic
- run.parameters: 10000 nM; 72 h
Readings of cell viability for the listed compounds
Enter your answer as a number in %; do not include the unit.

Query :: What is its cell viability for HL-60? Entry: CCCCC/C=C\C/C=C\C/C=C\C/C=C\CCCC(=O)C(F)(F)F [Arachidonyl trifluoromethyl ketone]
Result :: 96.5

Query :: What is its cell viability for HL-60? Entry: Cn1cc(C[C@@H](N)C(=O)O)c2ccccc21 [Indoximod]
Result :: 106

Query :: What is its cell viability for HL-60? Entry: CC(C)c1ccc2c(c1)c(SC(C)(C)C)c(CC(C)(C)C(=O)O)n2Cc1ccc(Cl)cc1 [MK-886]
Result :: 124

Query :: What is its cell viability for HL-60? Entry: Cc1nc(-c2ccc(OCC(C)C)c(C#N)c2)sc1C(=O)O [Febuxostat]
Result :: 99.3

Query :: What is its cell viability for HL-60? Entry: CC(=O)N1CCN(c2ccc(OC[C@@H]3CO[C@@](Cn4ccnc4)(c4ccc(Cl)cc4Cl)O3)cc2)CC1 (racemic) [Ketoconazole]
Result :: 75.5

Query :: What is its cell viability for HL-60? Entry: CCCC(CCC)C(=O)O [Valproic acid]
Result :: 103

Query :: What is its cell viability for HL-60? Entry: CNC(=C[N+](=O)[O-])NCCSCc1ccc(CN(C)C)o1 [Ranitidine]
Result :: 121

Query :: What is its cell viability for HL-60? Entry: O=c1[nH]c(=O)n([C@H]2C[C@H](O)[C@@H](CO)O2)cc1I [Idoxuridine]
Result :: 84

Query :: What is its cell viability for HL-60? Entry: CCCCCCCNC=O [N-Heptyl-Formamide]
Result :: 91.7
